test system: NCI-H1299; experiment: cells; settings: Homo sapiens, NCI-H1299, 48 h
Description: Antiproliferative activity against human NCI-H1299 cells assessed as inhibition of cell growth incubated for 48 hrs by MTT assay
Some compounds, each annotated with its measured IC50.

SMILES STRUCTURE | IC50 (nM)
CC(C)CC(=O)Nc1cncc(-c2ccc3[nH]nc(-c4nc(-c5ccsc5)c[nH]4)c3c2)c1 | 910
CC(C)CC(=O)Nc1cncc(-c2ccc3[nH]nc(-c4nc(-c5cccc(C(F)(F)F)c5)c[nH]4)c3c2)c1 | 3070
Cc1nc(-c2n[nH]c3ccc(-c4cncc(CN5CCC(F)(F)C5)c4)cc23)[nH]c1-c1ccccc1 | 1620
CC(C)C[C@H](N)COc1cncc(-c2ccc3[nH]nc(-c4nc(-c5cccc(C(F)(F)F)c5)c[nH]4)c3c2)c1 | 1160

* * *

Some molecules, each annotated with its measured pIC50.
system: NCI-H1299; assay: cells; conditions: Homo sapiens, NCI-H1299, 48 h
pIC50: −log10 of the molar value.

SMILES STRUCTURE | SYSTEM NAME | pIC50
CC(C)CC(=O)Nc1cncc(-c2ccc3[nH]nc(-c4nc(-c5ccco5)c(-c5ccco5)[nH]4)c3c2)c1 | NCI-H1299 | 5.82
CC(C)C[C@H](N)COc1cncc(-c2ccc3[nH]nc(-c4nc(-c5cccnc5)c[nH]4)c3c2)c1 | NCI-H1299 | 6.15
FC1(F)CCN(Cc2cncc(-c3ccc4[nH]nc(-c5nc(-c6ccccc6)c[nH]5)c4c3)c2)C1 | NCI-H1299 | 5.90
